These data points were gathered from the nanobody polyreactivity screen of Harvey et al. (2022).

- assay text: yeast display, Sf9 membrane polyspecificity reagent, FACS + sequencing; frameworks hold sequencing errors
endpoint: polyreactivity (PSR sort gate)

[[record]]
sequence = "QVQLVESGGGLVQAGGSLRLSCAASGITFDYYAMGWYRQEPGKERELVAAISSAGRTYYADSVKGRFTISRDNAKNTVYLQMNSLKPEDTAVYYCAATAFSYYPYHGDYWGQGTQVTVSS"
observed = "high polyreactivity"

[[record]]
sequence = "QVQLVESGGGLVQAGGSIRLSCAASGIIFLGNAMGWYRQAPGIERELVAAITASGTTSYYADSVKGRFTISRDNAKNTVSLQMNSLKPEDTAVDYCAAQSTWYDFYYWVQGTQVTVSS"
observed = "low polyreactivity"

[[record]]
sequence = "QVQLVESGGGLVQARGSLRLSCAASGSIFGYNVMGWYRQAPGIERELVAAITVNGGRTYYADSVKGRFTISRDNAKNTVYLQMNSLIPEDTAVDDCAARVTGTQRSGYYWGQGTQVTVSS"
observed = "high polyreactivity"

[[record]]
sequence = "QVQLVESGGGLVQAGGSLRLSCDASGLTFDQYAMGWYRQGPGKERELVAAISGSDSTYYADSVKGRFTISRDNAKNTVYLQMNSLKPEDTAVYYCAASGDYVNIITGERFDARLYDYWGQGTQVTVSS"
observed = "low polyreactivity"

[[record]]
sequence = "QVQLVESGGGLVQAGGSLRLSCAATGSIFYNYAMGWYRQAPGKERELVAAINRSGGITFYADSVKGRFTISRDNAKNTVYLQMNSLKPEDTAVYYCAAEEVPYDRDMDYWGQGTQVTVSS"
observed = "low polyreactivity"

